# Method: qHTS assay for identifying genotoxic compounds that show differential cytotoxicity against isogenic chicken DT40 cell lines with known DNA damage response pathways - Rev3 mutant cell line (AID 743014); further: nearly all actives have a fitted effect of over 55% in size
# Measurement parameters: chicken DT40 Rev3-/- viability, CellTiter-Glo, 40 h; series mostly up to 68.4 µM
Records with an inconclusive call do not appear. Active and inactive are the calls of the source. The call rests on the fitted dose curve; in most records, active means well fitted cell-killing curve with a large enough effect in the repeat runs; inconclusive means weak or mixed curves, or effect the other way; inactive means no such curve, though single readings can be large or run the other way.
Outcomes: yes (1) (active), no (0) (inactive)

Molecule	Label value
CCCCN(CCCC)CCCCCCN(CCCC)CCCC	no (0)
CCCC(C)C(O)CC (centres undefined)	no (0)
NC[C@H]1O[C@H](O[C@H]2[C@H](O)[C@@H](O[C@H]3O[C@H](CO)[C@@H](O)[C@H](N)[C@H]3O)[C@H](N)C[C@@H]2N)[C@H](N)[C@@H](O)[C@@H]1O	no (0)
O=c1c(O)c(O)c1=O	no (0)
CC[N+](C)(CC)CC	no (0)
C=CCCCCCCCCOC(C)=O	no (0)
NC(=O)CC[C@@H](N)C(=O)O	no (0)
Cc1ccc(NC(N)=O)cc1	no (0)
CN(C)CCc1c[nH]c2ccc(C[C@H]3COC(=O)N3)cc12	no (0)
CCCCCCCCCCCCCC(=O)OCC	no (0)
O=C1c2ccccc2C(=O)N1CO	no (0)
OCCC(F)(F)C(F)(F)C(F)(F)C(F)(F)C(F)(F)C(F)(F)F	no (0)
O=C1Nc2ccccc2C1=O	no (0)
COc1cc(C(=O)NC2CCCNC2)cc(OC)c1OC (centres undefined)	no (0)
CNCCc1ccccn1	no (0)
COCCCOc1cc(C[C@@H](C[C@H](N)[C@@H](O)C[C@H](C(=O)NCC(C)(C)C(N)=O)C(C)C)C(C)C)ccc1OC	no (0)
O=C(O)COc1ccc2ccccc2c1	no (0)
C=CCN1CCc2nc(N)sc2CC1	no (0)
CC1(C)CC(N)CC(C)(C)N1	no (0)
CSC(=O)c1cccc2nnsc12	yes (1)
CC(C)OCCO	no (0)
CCCCc1ccc(Cl)cc1	no (0)
CC(C)OC(=O)C(C(=O)OC(C)C)=C1SC=CS1	yes (1)
COc1cnc(NS(=O)(=O)c2ccc(N)cc2)nc1	no (0)
O=C(O)CCCCCCCCCC(=O)O	yes (1)
CCC(C)SSC(C)CC (centres undefined)	no (0)
CC(=O)SC[C@@H](C)C(=O)N1CCC[C@H]1C(=O)N[C@@H](Cc1ccccc1)C(=O)O	no (0)
CCCC(=O)OC	no (0)
COC(=O)c1ccccc1Cl	no (0)
CC/C=C\CCCCCCCCCCOC(C)=O	no (0)
CCCc1ccc(O)c(OC)c1	no (0)
Clc1cc(Cl)c(Cl)c(Cl)c1Cl	no (0)
CCC(C)(C)C	no (0)
Nc1cc(S(=O)(=O)O)ccc1O	no (0)
CCCCCCCCC1CO1 (centres undefined)	no (0)
CC/C=C/CCCCCCCCCCOC(C)=O	yes (1)
NCC1CCC(C(=O)Oc2ccc(CCC(=O)O)cc2)CC1 (centres undefined)	no (0)
CC(C)(C)C(=O)NCCCC(=O)O	no (0)
COC(C)(C)CC(C)=O	yes (1)
N[C@H]1C(O)O[C@H](CO)[C@@H](O)[C@@H]1O (some centres undefined)	no (0)
Cc1nnc(C(=O)NC(C)(C)c2nc(C(=O)NCc3ccc(F)cc3)c(O)c(=O)n2C)o1	no (0)
CC(=O)Nc1ccc(S(=O)(=O)Nc2cc(C)on2)cc1	no (0)
Cc1ccccc1OCC(=O)O	no (0)
CCCCCCCCOCCC#N	no (0)
O=C(c1ccccc1)c1cccc(O)c1	no (0)
Cc1ccc(O)c(C(=O)c2ccccc2)c1	no (0)
C=C(C)C(=O)OCCCC	no (0)
COc1ccc(Cl)cc1C	no (0)
O=Cc1ccc(C(=O)O)cc1	no (0)
CCCOc1ccc(C(=O)OCCN(CC)CC)cc1N	yes (1)
CCc1ncc(C)[nH]1	no (0)
C/C=C(\C)C=O	no (0)
CCCCCCC(O)CO (centres undefined)	no (0)
CN(C)CCc1c[nH]c2ccc(CS(=O)(=O)N3CCCC3)cc12	no (0)
